# Test system: RAW-Dual (murine macrophage reporter line)
# Experimental details: NF-kB reporter (SEAP) activity fold change vs agonist alone; higher = enhanced NF-kB activity
# Condition: modulator concentration 10 µM; agonist: MPLA […]
Endpoint: NF-kB reporter
Number, no unit, nothing else.

Recorded results for 2 compounds are shown here.
>  <Compound>
CC1CC(=O)C2=C(C1)OC(N)=C(C#N)C2c1ccc(Br)cc1 (stereo not drawn)

>  <NF-kB reporter>
1

$$$$
>  <Compound>
COCCOCC1CCN(C(=O)c2cc(-c3cccc(OC)c3)n[nH]2)CC1

>  <NF-kB reporter>
0.992

$$$$

Shift focus to the following entry.
Any idea what its NF-kB reporter is? The compound is COc1ccc(C(=O)N2CC(n3cc(CN4CCCC4=O)nn3)C2)cc1F
1

* * *

# Test system: RAW-Dual (murine macrophage reporter line)
# Experimental details: viability score (confluency relative to resting cells, overnight) (fraction); higher = more viable, active = viable (0.7 or more)
# Condition: modulator concentration 10 µM
Label Met when viability score is strictly below 1; otherwise label Not met.

>  <Compound>
CC(C)(C)c1cc(C=NO)c(C(C)(C)C)s1

>  <Target under test>
RAW-Dual (murine macrophage reporter line)

>  <Classification>
Met

$$$$
>  <Compound>
CC(=O)OC(OC(C)=O)c1ccc([N+](=O)[O-])s1

>  <Target under test>
RAW-Dual (murine macrophage reporter line)

>  <Classification>
Met

$$$$
>  <Compound>
c1cncc(CSc2ccc(-c3ccncc3)nn2)c1

>  <Target under test>
RAW-Dual (murine macrophage reporter line)

>  <Classification>
Met

$$$$
>  <Compound>
O=C(/C=C/C=C/c1ccc2c(c1)OCO2)N1CCCCC1

>  <Target under test>
RAW-Dual (murine macrophage reporter line)

>  <Classification>
Not met

$$$$
>  <Compound>
CC1(C)CCCC2(C)C1CCC1(C)OC(=O)CC12 (configuration not stated)

>  <Target under test>
RAW-Dual (murine macrophage reporter line)

>  <Classification>
Met

$$$$

Now look at this entry.
Please state whether viability score is below 1 for COc1cc2c(Oc3ccc(NC(=O)C4(C(=O)Nc5ccc(F)cc5)CC4)cc3F)ccnc2cc1OCCCN1CCOCC1
Met

* * *

# System: RAW-Dual (murine macrophage reporter line)
# Experimental details: NF-kB reporter (SEAP) activity fold change vs agonist alone; higher = enhanced NF-kB activity
# Condition: modulator concentration 10 µM; agonist: MPLA […]
Endpoint: NF-kB reporter

Recorded results for 2 molecules are shown here.
>  <Smiles structure>
O=C(O)c1cc(S(=O)(=O)N2CCCCC2)c(Cl)cc1Cl

>  <Measured value>
0.965

$$$$
>  <Smiles structure>
COc1nn(C)cc1C(=O)Nc1ccc(C(=O)NCCN2CCOCC2)cc1

>  <Measured value>
0.893

$$$$

Any idea what its NF-kB reporter is? The molecule is COc1cccc(CC(=O)Nc2ccc(CC(=O)N3CCC(O)CC3)cc2)c1
1.06

* * *

# Tested on: RAW-Dual (murine macrophage reporter line)
# Experimental details: IRF reporter (Lucia luciferase) activity fold change vs agonist alone; higher = enhanced IRF activity
# Condition: modulator concentration 10 µM; agonist: 3'3'-cGAMP 10 ug/mL
Endpoint: IRF reporter
Number, no unit, nothing else.

Recorded results for 6 molecules are shown here.
>  <Molecule>
O=C1C(O)=C(c2ccc([N+](=O)[O-])cc2)C(=O)c2ccccc21

>  <IRF reporter>
0.969

$$$$
>  <Molecule>
Oc1ccc(Nc2nc(Nc3ccc(O)cc3)nc(N3CCOCC3)n2)cc1

>  <IRF reporter>
0.383

$$$$
>  <Molecule>
Cc1nc(NC(=O)N2CCC[C@H]2C(N)=O)sc1-c1ccnc(C(C)(C)C(F)(F)F)c1

>  <IRF reporter>
0.916

$$$$
>  <Molecule>
CN(C)C/C=C/C(=O)Nc1cc2c(Nc3ccc(F)c(Cl)c3)ncnc2cc1O[C@H]1CCOC1

>  <IRF reporter>
0.0559

$$$$
>  <Molecule>
COc1cccc(-c2ccc(NC(=O)C3=C(C(=O)O)CCC3)c(F)c2)c1

>  <IRF reporter>
2.42

$$$$
>  <Molecule>
COc1ccc(Nc2nc(N3CCCC(C)C3)nc3[nH]ncc23)cc1 (configuration not stated)

>  <IRF reporter>
0.623

$$$$

Any idea what its IRF reporter is? The molecule is Cc1ccc(-c2ncc(Cl)cc2-c2ccc(S(C)(=O)=O)cc2)cn1
1.05

Any idea what its IRF reporter is? The molecule is Cl.NCCCC[C@H](N)C(=O)O
0.867

Any idea what its IRF reporter is? The molecule is COc1ccc(Cl)cc1C(=O)Nc1cc(C(F)(F)F)cc(C(F)(F)F)c1
0.966
